Recorded values, source PubChem BioAssay AID1963839.

- Tested on: 817829-284-R-J1-PDC complex spheroid viability
- ASSAY PROTOCOL: Anticancer human tumor 817829-284-R-J1-PDC patient-derived colon adenocarcinoma cell line growth inhibition [POLQ]; active means viability on the fitted dose curve at most 10% of control; inactive means the rest
- TEST SETTINGS: second compound 0.316 µM; first compound 0.1 µM
Returns: one label drawn from active, inactive

Tell me the recorded outcome of this test for COc1cccc(OCCCN)c1-c1cc(Nc2cnc(C#N)cn2)n[nH]1 + Cc1cccc(N(C)C(=O)C2C(O)CCN2c2nc(C)cc(C(F)(F)F)c2C#N)c1 .
active

Tell me the recorded outcome of this test for Cn1ncnc1[C@H]1c2n[nH]c(=O)c3cc(F)cc(c23)N[C@@H]1c1ccc(F)cc1 + COC1C(OC(N)=O)C(O)C(Oc2ccc3c(O)c(NC(=O)c4ccc(O)c(CC=C(C)C)c4)c(=O)oc3c2C)OC1(C)C .
inactive

Tell me the recorded outcome of this test for O=c1[nH]cc(F)c(=O)[nH]1 + COC1C(OC(N)=O)C(O)C(Oc2ccc3c(O)c(NC(=O)c4ccc(O)c(CC=C(C)C)c4)c(=O)oc3c2C)OC1(C)C .
inactive

Tell me the recorded outcome of this test for CCc1cc2c(N3CCc4c(cc(Cn5ccnc5)cc4-c4cn(C)nc4C(F)(F)F)C3=O)cc(C)nc2c(OC)n1 + COC1C(OC(N)=O)C(O)C(Oc2ccc3c(O)c(NC(=O)c4ccc(O)c(CC=C(C)C)c4)c(=O)oc3c2C)OC1(C)C .
inactive

Tell me the recorded outcome of this test for COc1cc2cc(C(=O)CCC(=O)O)sc2cc1OC + Cc1cccc(N(C)C(=O)C2C(O)CCN2c2nc(C)cc(C(F)(F)F)c2C#N)c1 .
inactive

Tell me the recorded outcome of this test for O=C(c1cc(Cc2n[nH]c(=O)c3ccccc23)ccc1F)N1CCN(C(=O)C2CC2)CC1 + COC1C(OC(N)=O)C(O)C(Oc2ccc3c(O)c(NC(=O)c4ccc(O)c(CC=C(C)C)c4)c(=O)oc3c2C)OC1(C)C .
inactive

Tell me the recorded outcome of this test for C#Cc1c(F)ccc2cc(O)cc(-c3ncc4c(N5CC6CCC(C5)N6)nc(OCC56CCCN5CC(F)C6)nc4c3F)c12 (stereo not given) + COC1C(OC(N)=O)C(O)C(Oc2ccc3c(O)c(NC(=O)c4ccc(O)c(CC=C(C)C)c4)c(=O)oc3c2C)OC1(C)C .
inactive

Tell me the recorded outcome of this test for COc1cccc(OCCCN)c1-c1cc(Nc2cnc(C#N)cn2)n[nH]1 + COC1C(OC(N)=O)C(O)C(Oc2ccc3c(O)c(NC(=O)c4ccc(O)c(CC=C(C)C)c4)c(=O)oc3c2C)OC1(C)C .
active

Tell me the recorded outcome of this test for CCc1cc2c(N3CCc4c(cc(Cn5ccnc5)cc4-c4cn(C)nc4C(F)(F)F)C3=O)ccnc2c(OC)n1 + Nc1ccc(C#CCN(C(=O)Cc2ncc(C(F)(F)F)cc2C(F)(F)F)c2ccc(F)cc2)nn1 .
inactive

Tell me the recorded outcome of this test for C=CCn1c(=O)c2cnc(Nc3ccc(N4CCN(C)CC4)cc3)nc2n1-c1cccc(C(C)(C)O)n1 + COC1C(OC(N)=O)C(O)C(Oc2ccc3c(O)c(NC(=O)c4ccc(O)c(CC=C(C)C)c4)c(=O)oc3c2C)OC1(C)C .
inactive

* * *

- System: 817829-284-R-J1-PDC complex spheroid viability
- ASSAY PROTOCOL: Anticancer human tumor 817829-284-R-J1-PDC cell line growth inhibition [POLQ]; active = viability on the fitted dose curve at most 10% of control; inactive = the rest;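 further: spheroids exposed to compounds for 7 days; 100% = DMSO vehicle-treated spheroids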
- TEST SETTINGS: second compound 0.316 µM; first compound 0.1 µM
Returns: one label drawn from 1.0 (active), 0.0 (inactive)

Some entries whose results are on file:
MOLECULE	CATEGORY LABEL
CCc1cc2c(N3CCc4c(cc(Cn5ccnc5)cc4-c4cn(C)nc4C(F)(F)F)C3=O)ccnc2c(OC)n1 + COC1C(OC(N)=O)C(O)C(Oc2ccc3c(O)c(NC(=O)c4ccc(O)c(CC=C(C)C)c4)c(=O)oc3c2C)OC1(C)C	0.0
CCCS(=O)(=O)Nc1ccc(F)c(C(=O)c2c[nH]c3ncc(-c4ccc(Cl)cc4)cc23)c1F + Nc1ccc(C#CCN(C(=O)Cc2ncc(C(F)(F)F)cc2C(F)(F)F)c2ccc(F)cc2)nn1	0.0
O=C(Nc1ccc(O)c(NS(=O)(=O)c2ccc(F)cc2)c1)c1ccc(-c2ccccc2)cc1 + COC1C(OC(N)=O)C(O)C(Oc2ccc3c(O)c(NC(=O)c4ccc(O)c(CC=C(C)C)c4)c(=O)oc3c2C)OC1(C)C	0.0

Tell me the recorded outcome of this test for CC[C@@]1(O)C(=O)OCc2c1cc1n(c2=O)Cc2cc3c(CN(C)C)c(O)ccc3nc2-1 + Cc1cccc(N(C)C(=O)C2C(O)CCN2c2nc(C)cc(C(F)(F)F)c2C#N)c1 .
0.0

Tell me the recorded outcome of this test for Nc1ccn(C2OC(CO)C(O)C2(F)F)c(=O)n1 (stereo unspecified) + COC1C(OC(N)=O)C(O)C(Oc2ccc3c(O)c(NC(=O)c4ccc(O)c(CC=C(C)C)c4)c(=O)oc3c2C)OC1(C)C .
1.0

Tell me the recorded outcome of this test for CC1COCCN1c1cc(-c2ccnn2C)c2ccnc(-c3ccn[nH]3)c2n1 (stereo unspecified) + COC1C(OC(N)=O)C(O)C(Oc2ccc3c(O)c(NC(=O)c4ccc(O)c(CC=C(C)C)c4)c(=O)oc3c2C)OC1(C)C .
0.0

Tell me the recorded outcome of this test for COc1cccc(OCCCN)c1-c1cc(Nc2cnc(C#N)cn2)n[nH]1 + Nc1ccc(C#CCN(C(=O)Cc2ncc(C(F)(F)F)cc2C(F)(F)F)c2ccc(F)cc2)nn1 .
1.0

Tell me the recorded outcome of this test for CC1COCCN1c1cc(C2(O)CC3CCC(C2)O3)c2cnn(-c3ccn[nH]3)c2n1 (stereo unspecified) + COC1C(OC(N)=O)C(O)C(Oc2ccc3c(O)c(NC(=O)c4ccc(O)c(CC=C(C)C)c4)c(=O)oc3c2C)OC1(C)C .
1.0

Tell me the recorded outcome of this test for CC(C)n1c(=O)n(C)c2cnc3cc(F)c(-c4ccc(OCCCN5CCCCC5)nc4)cc3c21 + Nc1ccc(C#CCN(C(=O)Cc2ncc(C(F)(F)F)cc2C(F)(F)F)c2ccc(F)cc2)nn1 .
0.0

Tell me the recorded outcome of this test for Nc1ccn(C2OC(CO)C(O)C2(F)F)c(=O)n1 (stereo unspecified) + Nc1ccc(C#CCN(C(=O)Cc2ncc(C(F)(F)F)cc2C(F)(F)F)c2ccc(F)cc2)nn1 .
1.0

Tell me the recorded outcome of this test for COc1cccc2c1C(=O)c1c(O)c3c(c(O)c1C2=O)CC(O)(C(=O)CO)CC3OC1CC(N)C(O)C(C)O1 (stereo unspecified) + Nc1ccc(C#CCN(C(=O)Cc2ncc(C(F)(F)F)cc2C(F)(F)F)c2ccc(F)cc2)nn1 .
0.0

Tell me the recorded outcome of this test for O=C(Nc1ccc(O)c(NS(=O)(=O)c2ccc(F)cc2)c1)c1ccc(-c2ccccc2)cc1 + Cc1cccc(N(C)C(=O)C2C(O)CCN2c2nc(C)cc(C(F)(F)F)c2C#N)c1 .
0.0

Tell me the recorded outcome of this test for COc1cccc2c1C(=O)c1c(O)c3c(c(O)c1C2=O)CC(O)(C(=O)CO)CC3OC1CC(N)C(O)C(C)O1 (stereo unspecified) + Cc1cccc(N(C)C(=O)C2C(O)CCN2c2nc(C)cc(C(F)(F)F)c2C#N)c1 .
0.0

Tell me the recorded outcome of this test for CCc1cc2c(N3CCc4c(cc(Cn5ccnc5)cc4-c4cn(C)nc4C(F)(F)F)C3=O)ccnc2c(OC)n1 + Cc1cccc(N(C)C(=O)C2C(O)CCN2c2nc(C)cc(C(F)(F)F)c2C#N)c1 .
0.0

Tell me the recorded outcome of this test for CC(C)n1c(=O)n(C)c2cnc3cc(F)c(-c4ccc(OCCCN5CCCCC5)nc4)cc3c21 + COC1C(OC(N)=O)C(O)C(Oc2ccc3c(O)c(NC(=O)c4ccc(O)c(CC=C(C)C)c4)c(=O)oc3c2C)OC1(C)C .
0.0

Tell me the recorded outcome of this test for Cn1ncnc1[C@H]1c2n[nH]c(=O)c3cc(F)cc(c23)N[C@@H]1c1ccc(F)cc1 + Cc1cccc(N(C)C(=O)C2C(O)CCN2c2nc(C)cc(C(F)(F)F)c2C#N)c1 .
0.0

Tell me the recorded outcome of this test for CCc1c2c(nc3ccc(O)cc13)-c1cc3c(c(=O)n1C2)COC(=O)[C@]3(O)CC + Cc1cccc(N(C)C(=O)C2C(O)CCN2c2nc(C)cc(C(F)(F)F)c2C#N)c1 .
1.0

Tell me the recorded outcome of this test for COc1cc2cc(C(=O)CCC(=O)O)sc2cc1OC + COC1C(OC(N)=O)C(O)C(Oc2ccc3c(O)c(NC(=O)c4ccc(O)c(CC=C(C)C)c4)c(=O)oc3c2C)OC1(C)C .
0.0

Tell me the recorded outcome of this test for C=CC(=O)N1CCN(c2nc(=O)n(-c3c(C)ccnc3C(C)C)c3nc(-c4c(O)cccc4F)c(F)cc23)C(C)C1 (stereo unspecified) + Nc1ccc(C#CCN(C(=O)Cc2ncc(C(F)(F)F)cc2C(F)(F)F)c2ccc(F)cc2)nn1 .
0.0

Tell me the recorded outcome of this test for O=c1[nH]cc(F)c(=O)[nH]1 + Nc1ccc(C#CCN(C(=O)Cc2ncc(C(F)(F)F)cc2C(F)(F)F)c2ccc(F)cc2)nn1 .
0.0

Tell me the recorded outcome of this test for CNCc1ccc(-c2[nH]c3cc(F)cc4c3c2CCNC4=O)cc1 + Nc1ccc(C#CCN(C(=O)Cc2ncc(C(F)(F)F)cc2C(F)(F)F)c2ccc(F)cc2)nn1 .
0.0
